Please respond with reported GI50 for every item in the list.

Challenge: Fill: GI50 (MCF-7) for this compound O=C1c2ccccc2-c2c1c1ccc([N+](=O)[O-])cc1c(=O)n2CCCn1ccnc1 [compound 7]
Response given: 2170 nM

Challenge: Report value: GI50, system: MCF-7, compound: COc1cnc2c(c1)C(=O)c1c-2n(CCCN2CCOCC2)c(=O)c2cc([N+](=O)[O-])ccc12 [compound 10]
Response given: 20 nM

Challenge: Quote MCF-7 GI50 for entry COc1cnc2c(c1)C(=O)c1c-2n(CCCn2ccnc2)c(=O)c2cc([N+](=O)[O-])ccc12 [compound 9] .
Response given: < 10 nM
